Tested on: BJ, B16-F10, T47D, T47Dp53 and HeLa cells
Experiment: Cell cycle assay (propidium iodide flow cytometry), cell line panel
Type: cell-based
Conditions: 150 nM oligomeric compound, 4.5 μg/ml LIPOFECTIN, after 72 hours, propidium iodide flow cytometry
In the oligonucleotide strings, read from the 5' end, every base follows the letter of its sugar. An asterisk marks phosphorothioate; unmarked linkages are phosphodiester. Other units and linkages are bracketed, terminal groups are in braces. A string of capitals states the bases alone. e = 2'-O-(2-methoxyethyl) (MOE); [5mC] = 5-methylcytosine; d = 2'-deoxy (DNA)
Experimental Readout: SubG1 (percentage of cells in phase of the cell cycle) (%)

{"columns": ["Substance", "Numeric Result"],
 "data": [
  ["328394 (eG*eT*eT*eT*eT*dT*dT*d[5mC]*dA*dA*dA*dT*d[5mC]*d[5mC]*d[5mC]*eA*eA*eA*e[5mC]*eT) [compound 328394]", 2.4],
  ["327933 (antisense eA*eA*eG*eG*eG*eA*eT*eT*e[5mC]*e[5mC]*eT*eG*eG*eG*eA*eA*eA*eA*e[5mC]*eT*eG*eG*eA*e[5mC]) [compound 327933]", 10.2],
  ["328697 (eG*e[5mC]*eT*eT*eG*dT*d[5mC]*d[5mC]*dA*d[5mC]*dA*d[5mC]*dA*dG*dT*eT*e[5mC]*eA*eA*e[5mC]; antisense) [compound 328697]", 2.4],
  ["328342 (e[5mC]*eA*eA*eT*eT*dG*d[5mC]*dG*d[5mC]*dT*dA*d[5mC]*dA*dG*dA*eA*e[5mC]*eT*eG*eT) [compound 328342]", 4.8],
  ["328424 (antisense eA*eG*eG*eA*eA*dG*d[5mC]*dA*d[5mC]*dA*d[5mC]*dA*dT*dT*dA*eT*e[5mC]*eA*e[5mC]*eA) [compound 328424]", 3.1]
]}
